# testName: loose bulk density measurement of nicotinamide mononucleotide crystals (sieve, weigh, graduated cylinder)
# Assay type: physicochemical
# measurementSetup: cooling rate 20, crystallization end temperature 10; water content 10%, pH 3.5
attributeMeasured: Bulk density

[[record]]
compound = "NC(=O)c1ccc[n+]([C@@H]2O[C@H](COP(=O)([O-])O)[C@@H](O)[C@H]2O)c1 [Example 2, nicotinamide mononucleotide]"
observed = "0.35 g/mL"


====

# testName: loose bulk density measurement of nicotinamide mononucleotide crystals (sieve, weigh, graduated cylinder)
# Type: physicochemical
# measurementSetup: loose bulk density, average of 3 parallel samples
attributeMeasured: Bulk density (g/mL)

[[record]]
molecule = "NC(=O)c1ccc[n+]([C@@H]2O[C@H](COP(=O)([O-])O)[C@@H](O)[C@H]2O)c1 [Example 4, nicotinamide mononucleotide]"
observed = 1.02

[[record]]
molecule = "NC(=O)c1ccc[n+]([C@@H]2O[C@H](COP(=O)([O-])O)[C@@H](O)[C@H]2O)c1 [Comparative Example 2, nicotinamide mononucleotide]"
observed = 0.20

[[record]]
molecule = "NC(=O)c1ccc[n+]([C@@H]2O[C@H](COP(=O)([O-])O)[C@@H](O)[C@H]2O)c1 [Example 7, nicotinamide mononucleotide]"
observed = 0.95

[[record]]
molecule = "NC(=O)c1ccc[n+]([C@@H]2O[C@H](COP(=O)([O-])O)[C@@H](O)[C@H]2O)c1 [Comparative Example 4, nicotinamide mononucleotide]"
observed = 0.56

[[record]]
molecule = "NC(=O)c1ccc[n+]([C@@H]2O[C@H](COP(=O)([O-])O)[C@@H](O)[C@H]2O)c1 [Example 8, nicotinamide mononucleotide]"
observed = 1.24

[[record]]
molecule = "NC(=O)c1ccc[n+]([C@@H]2O[C@H](COP(=O)([O-])O)[C@@H](O)[C@H]2O)c1 [Example 6, nicotinamide mononucleotide]"
observed = 1.21

[[record]]
molecule = "NC(=O)c1ccc[n+]([C@@H]2O[C@H](COP(=O)([O-])O)[C@@H](O)[C@H]2O)c1 [Example 5, nicotinamide mononucleotide]"
observed = 1.17

[[record]]
molecule = "NC(=O)c1ccc[n+]([C@@H]2O[C@H](COP(=O)([O-])O)[C@@H](O)[C@H]2O)c1 [Comparative Example 1, nicotinamide mononucleotide]"
observed = 0.23

[[record]]
molecule = "NC(=O)c1ccc[n+]([C@@H]2O[C@H](COP(=O)([O-])O)[C@@H](O)[C@H]2O)c1 [Comparative Example 3, nicotinamide mononucleotide]"
observed = 0.40


====

# testName: loose bulk density measurement of nicotinamide mononucleotide crystals (sieve, weigh, graduated cylinder)
# Type: physicochemical
# measurementSetup: cooling rate 10, crystallization end temperature 5; water content 10%, pH 3.5
attributeMeasured: Bulk density (g/mL)

[[record]]
molecule = "NC(=O)c1ccc[n+]([C@@H]2O[C@H](COP(=O)([O-])O)[C@@H](O)[C@H]2O)c1 [Example 2, nicotinamide mononucleotide]"
attributemeasured = "Bulk density"
observed = 0.88


====

# testName: loose bulk density measurement of nicotinamide mononucleotide crystals (sieve, weigh, graduated cylinder)
# Type: physicochemical
# measurementSetup: cooling rate 15, crystallization end temperature 18; water content 10%, pH 3.5
attributeMeasured: Bulk density (g/mL)

[[record]]
compound = "NC(=O)c1ccc[n+]([C@@H]2O[C@H](COP(=O)([O-])O)[C@@H](O)[C@H]2O)c1 [Example 2, nicotinamide mononucleotide]"
observed = 0.82

